- Tested on: EKVX NSCLC
- Test name: NCI tumour cell line growth inhibition, 48 h
Value kind: TGI

[[record]]
compound = "Oc1ccc(Cl)cc1C=Nc1cnc2ccccc2c1"
observed_result = "> 86 µM"

[[record]]
compound = "CN1CCN(C2=NC(=O)/C(=C\\c3ccc(N(C)C)cc3)S2)CC1"
observed_result = "> 100 µM"

[[record]]
compound = "NC(=O)CCC(N=c1c2ccccc2n(O)c2ccccc12)C(=O)O (configuration not stated)"
observed_result = "> 100 µM"

[[record]]
compound = "CCc1nc(N)c2nc(-c3cccs3)oc2n1"
observed_result = "> 100 µM"

[[record]]
compound = "CCOc1ccc2nc(NC(=O)C(=O)C(C(=O)c3ccccc3F)C3OC(=O)c4ccccc43)sc2c1 (configuration not stated)"
observed_result = "45.3 µM"

[[record]]
compound = "N#CCCC(C=O)(CCC#N)CCC#N"
observed_result = "> 100 µM"

[[record]]
compound = "COc1cc(CCNC2=CC(=O)c3nc[nH]c3C2=O)ccc1O"
observed_result = "47.4 µM"

